Assignment: determine reported survival for the given compounds.
Tested on: DeltatarO mutant
protocol-summary: S. aureus survival, RN4220 and DeltatarO strains – OD600, teichoic acid synthesis inhibitors, primary screen (AID 463173)
recorded-conditions: S. aureus RN4220 wild type/DeltatarO growth, OD600, 18 h, active compounds read low, screened at 18.75 µg/mL (by protocol)
Among all 52,000 compounds or so, about 4,300 (8.3%) were called active. Only a selection was taken, and actives are over-represented in it overall.

• O=C(/C=C/c1ccco1)Nc1ccc(Cl)c(-c2nc3cc(Cl)ccc3o2)c1 = 65% (inactive)
• Cc1cc(NC(=O)c2ccco2)cc(-c2nc3cc(Cl)ccc3o2)c1O = 79% (inactive)

Continue with the compound presented below.
Quick one: give measured survival for COc1cc(OC)c(NC(=O)COc2ccccc2-c2nnc(-c3ccccc3)o2)cc1Cl
95% (inactive)

----------
System: DeltatarO mutant
protocol-summary: S. aureus survival, RN4220 and DeltatarO strains – OD600, teichoic acid synthesis inhibitors, primary screen (AID 463173)
recorded-conditions: S. aureus RN4220 wild type/DeltatarO growth, OD600, 18 h, screened at 18.75 µg/mL (by protocol)
About 4,300 (8.3%) of roughly 52,000 compounds were called active. No stated cut-off is given here; in the data, active means survival mostly below about 52% (no sharp cut-off); inactive means mostly above about 56%. The sample as a whole holds a higher share of actives than the screen did.
Could you please pick one outcome from this set? t for active, f for inactive

Record excerpt, results attached:
• COC(=O)c1cc(NC(=O)c2ccc(-c3ccc(Cl)cc3Cl)o2)cc(C(=O)OC)c1 = f
• CC(=O)Nc1ccc(NC(=O)c2ccc(COc3ccc(Cl)cc3Cl)o2)cc1 = t

Now consider the entry below.
What was the test verdict on CCOc1ccc(OCc2ccc(C(=O)Nc3cc(OC)c(OC)c(OC)c3)o2)cc1 ?
t

----------
Test system: DeltatarO mutant
protocol-summary: S. aureus survival, RN4220 and DeltatarO strains – OD600, teichoic acid synthesis inhibitors, primary screen (AID 463173)
recorded-conditions: S. aureus RN4220 wild type/DeltatarO growth, OD600, 18 h, screened at 18.75 µg/mL (by protocol)
The whole screen tested about 52,000 compounds, of which about 4,300 (8.3%) were called active. No stated cut-off is given here; in the data, active means survival mostly below about 52% (no sharp cut-off); inactive means mostly above about 56%. For the sample, actives were picked, then their nearest neighbours and some compounds at random.
Pick one: active, inactive

- CC(C)(C)c1nnc(NS(=O)(=O)c2ccc(F)cc2)s1: inactive

Called result for COC(=O)c1sccc1S(=O)(=O)N(CC(=O)Nc1cc(C)cc(C)c1)c1ccc(Cl)cc1
inactive

Hi team, can someone confirm the assay call for COC(=O)c1ccccc1NC(=O)CCCS(=O)(=O)c1nc(-c2ccccc2OC)cc(C(F)(F)F)n1 ?
inactive

What did this assay record as the result for COC(=O)c1ccc(NC(=O)c2nn(C)c3c2CS(=O)(=O)c2ccccc2-3)cc1 ?
inactive

Just curious, what result did COc1ccccc1OCC(=O)Nc1c(C(=O)c2ccc(C)cc2)oc2ccccc12 get here?
inactive

Record lookup: outcome of this test for O=c1n(Cc2ccc([N+](=O)[O-])cc2)c2ccccc2c2nc(-c3ccccc3)nn12 ?
inactive

What did this assay record as the result for Cc1ccc(S(=O)(=O)Nc2nnc(CC(C)(C)C)s2)cc1 ?
inactive

What call does the record list for O=C(CCS(=O)(=O)c1nc(-c2cccs2)cc(C(F)(F)F)n1)Nc1ccc(Br)cc1 ?
inactive

Please state the recorded outcome for this compound: Cc1ccccc1C(=O)OCc1cc(=O)n2nc(-c3cccs3)sc2n1
inactive

Per the records of this test, what outcome belongs to COc1ccccc1-c1cc(C(F)(F)F)nc(S(=O)(=O)CCCC(=O)Nc2cc(Br)ccc2O)n1 ?
active

----------
For each of the molecules below, state its survival.
System: DeltatarO mutant
protocol-summary: S. aureus survival, RN4220 and DeltatarO strains – OD600, teichoic acid synthesis inhibitors, primary screen (AID 463173)
recorded-conditions: S. aureus RN4220 wild type/DeltatarO growth, OD600, 18 h, active compounds read low, screened at 18.75 µg/mL (by protocol)
About 4,300 (8.3%) of roughly 52,000 compounds were called active. The entries come from a sample that favours actives as a whole.

- Cc1nc2cc(C(=O)O)ccc2n1-c1ccc(C(C)C)cc1: 68% (inactive)

Each molecule below has a recorded value; state its survival.
1. Cc1ccc(S(=O)(=O)c2nc(-c3ccccc3F)oc2N2CCCCC2)cc1
2. CCC(C)NC(=O)CSc1nc(-c2ccc(F)cc2)cc(C(F)(F)F)n1 (stereo not given)
3. CCCOc1ccc(C2c3c(oc4ccccc4c3=O)C(=O)N2c2nnc(C(C)C)s2)cc1 (stereo not given)
4. CCCOc1ccc(C2c3c(oc4ccccc4c3=O)C(=O)N2c2nc(C)c(C(=O)OCC)s2)cc1 (stereo not given)
5. CC(=O)N1CCc2cc(Br)cc(S(=O)(=O)N3CCC(C(=O)Nc4cccc(C)c4C)CC3)c21

32% (active)
86% (inactive)
58% (active)
60% (inactive)
75% (active)

----------
Test system: DeltatarO mutant
protocol-summary: S. aureus survival, RN4220 and DeltatarO strains – OD600, teichoic acid synthesis inhibitors, primary screen (AID 463173)
recorded-conditions: S. aureus RN4220 wild type/DeltatarO growth, OD600, 18 h, active compounds read low, screened at 18.75 µg/mL (by protocol)
The whole screen tested about 52,000 compounds, of which about 4,300 (8.3%) were called active. What follows is part of a selection rich in actives, with near analogues and random picks from the rest.
recorded-endpoint: survival (%)
Answers are plain numbers, in %.

Solved cases below.
- Cc1cccc(OCCCn2c(CCNC(=O)C(C)(C)C)nc3ccccc32)c1: 77
- COc1ccc(Nc2nc3ccccc3nc2NS(=O)(=O)c2ccc(Cl)cc2)cc1OC: 29
- CCOc1ccc(S(=O)(=O)Nc2nc3ccccc3nc2Nc2ccc(OC)cc2)cc1: 68

Items follow; give survival for each.
1. CC(C)(C)C(=O)NCCc1nc2ccccc2n1CCCCOc1ccc(Cl)cc1
2. COc1cc([N+](=O)[O-])ccc1NC(=O)N1CCN(c2cc(-c3noc(C)n3)ccc2C)CC1
3. Oc1c(C(c2ccccc2F)N2CCN(c3ccccc3F)CC2)sc2nc(-c3ccco3)nn12 (configuration not stated)

1. 18
2. 94
3. 87

Record survival for all entries; do not skip any.
1. COc1ccc(Nc2nc3ccccc3nc2NS(=O)(=O)c2ccc(C)cc2)c(OC)c1
2. Cc1ccn2c(=O)cc(CSc3nnc(C)s3)nc2c1
3. CC(C)(C)C(=O)C1C2C3COC(O3)C(=O)C2C2C=Cc3ccccc3N21 (configuration not stated)
4. CCc1ccc(CNC(=O)c2nn(-c3ccc(OC)c(Cl)c3)c(=O)c3c2c2ccccc2n3C)cc1
5. CCc1nnc(SCc2ccc(F)cc2Cl)c2cc3sccc3n12
6. COc1ccc(NC(=O)CCSc2nc(-c3ccco3)cc(C(F)(F)F)n2)cc1OC

63
77
124
104
80
50

----------
Test system: DeltatarO mutant
protocol-summary: S. aureus survival, RN4220 and DeltatarO strains – OD600, teichoic acid synthesis inhibitors, primary screen (AID 463173)
recorded-conditions: S. aureus RN4220 wild type/DeltatarO growth, OD600, 18 h, screened at 18.75 µg/mL (by protocol)
Hit rate of the full screen: of about 52,000 compounds, about 4,300 (8.3%) were called active. Rule as the data show it: active = survival mostly below about 52% (no sharp cut-off); inactive = mostly above about 56%. The full list was thinned out, with actives kept by preference.
The categories you may choose from are yes (1) (active), no (0) (inactive)

Solved cases below.
• O=C(O)CC(NC(=O)Cc1ccccc1)c1ccccc1 (stereo not given) = no (0)
• O=C1CC(c2ccc(Br)cc2)c2c(ccc3ccccc23)N1 (stereo not given) = yes (1)
• Cc1cc(C)c2c(n1)nn1c(C)c(CCC(=O)NCc3ccc(Cl)cc3)c(C)nc21 = no (0)
• CCOc1ccccc1NC(=O)Cn1c(=O)n(CC(=O)NCc2ccccc2Cl)c(=O)c2sccc21 = no (0)
• CCOc1ccc(Nc2nc3ccccc3c3nnc(CC)n23)cc1 = no (0)
• COc1ccc(Nc2nc3ccccc3c3nnc(C)n23)cc1Cl = no (0)

Kindly provide the recorded test outcome for the following compound: CCN(CC)CCNC(=O)Cn1ncc2c([nH]c3ccccc32)c1=O
no (0)

Outcome logged for Cc1ccc(CCNC(=O)Cn2ncc3c([nH]c4ccccc43)c2=O)cc1 in this assay:
no (0)

Per the assay record, what outcome was assigned to CCCCN(CCCNC(=O)c1cc(Nc2ccc(OC)cc2OC)nc2ccccc12)Cc1ccccc1 ?
no (0)

Record lookup: outcome of this test for CC(=O)N1CCC(N(Cc2ccco2)C(=O)Nc2cccc(C)c2)CC1 ?
no (0)

Outcome? COc1ccc(C)cc1Nc1nc2ccccc2c2nnc(C)n12
no (0)

For this compound, state the assay outcome: CCCCn1cc(S(=O)(=O)c2ccc(Cl)cc2)c(=O)c2cc(F)c(N3CCCC(C)C3)cc21 (stereo not given)
no (0)

Outcome logged for COc1ccc(CNC(=O)Cn2ncc3c([nH]c4ccccc43)c2=O)cc1 in this assay:
no (0)

Field: outcome | Entry: CCn1nc(C)c(CCN(C)C(=O)Nc2ccc(C)c(Cl)c2)c1C
no (0)

Which outcome was entered for the compound CCC1CCCCN1C(=O)CSc1nnc(-c2ccc(OC)c(OC)c2)o1 (stereo not given) in this test?
no (0)

// return assay outcome for Cc1ccccc1C1CC(=O)Nc2ccc3ccccc3c21 (stereo not given)
no (0)

Per the records of this test, what outcome belongs to O=C(Nc1cccc(C(F)(F)F)c1)Nc1nnc(N2CCCCC2)s1 ?
no (0)

Please let me know the test result on file for Cc1ccc(C)c(N2CCN(S(=O)(=O)c3ccc4c(c3)CC(=O)N4C)CC2)c1 .
no (0)

Hi, sorry to bother you, what did the test record for Cc1c(C(=O)Nc2ccc(F)c(C(F)(F)F)c2)sc2nc(-c3ccccc3)cn12 ?
no (0)

Name the outcome recorded for Cc1nnc2c3ccccc3nc(Nc3ccc(F)cc3Cl)n12 in the assay.
no (0)

These entries and their values trace back to PubChem BioAssay AID463173.
